System: KP-4 (Pancreatic) cell line
assayName: Proliferation of KP-4
Type: cell-based
protocolConditions: Homo sapiens, KP-4; read-out: IC50 in μM KP-4 (Pancreatic)
observable: IC50

- CC(=O)O[C@@]12C[C@@H](C)[C@@]3(O)[C@@H](C=C(CO)C[C@]4(O)C(=O)C(C)=C[C@@H]34)[C@@H]1C2(C)C [Compound K101, prostratin, reference compound]: 0.2 to 0.6 µM

---

measuredTarget: C1b domain of human PKCδ (Homo sapiens)
Construct: Genes encoding C1b domains of human PKCα, δ, ε, θ, and PKD1 (PKCμ) were synthesized; made in house; host or cells: E. coli BL21(DE3)
Sequence (Q05655 230-280 limits assumed): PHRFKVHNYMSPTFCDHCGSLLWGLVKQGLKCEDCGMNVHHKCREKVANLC
assayName: Competitive 3H-PDBu binding to C1b domain of PKCδ
protocolConditions: Ki PKCδ, 3H-PDBu competition
pKi: −log10 of the molar value.
observable: pKi

• CC1=C[C@H]2[C@@]3(O)[C@H](C)C[C@]4(OC(=O)CCc5ccccn5)[C@H]([C@@H]3C=C(CO)C[C@]2(O)C1=O)C4(C)C [Compound K101-C1316] = 6.70 to 7.00
• CC1=C[C@H]2[C@@]3(O)[C@H](C)C[C@]4(OC(=O)CCC5CCCC5)[C@H]([C@@H]3C=C(CO)C[C@]2(O)C1=O)C4(C)C [Compound K101-C1301] = 8.00 to 8.30
• CC1=C[C@H]2[C@@]3(O)[C@H](C)C[C@]4(OC(=O)CC5CC6(C5)CN(C(=O)OC(C)(C)C)C6)[C@H]([C@@H]3C=C(CO)C[C@]2(O)C1=O)C4(C)C [Compound K101-C1312] = 8.00 to 8.30

---

Readings of pKi for the listed compounds
measuredTarget: C1b domain of human PKCε (Homo sapiens, UniProt Q02156)
Construct: Genes encoding C1b domains of human PKCα, δ, ε, θ, and PKD1 (PKCμ) were synthesized; made in house; host or cells: E. coli BL21(DE3)
Sequence (Q02156 242-292 limits assumed): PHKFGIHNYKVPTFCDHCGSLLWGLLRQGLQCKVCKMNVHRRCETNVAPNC
assayName: Competitive 3H-PDBu binding to C1b domain of PKCε
pKi: −log10 of the molar value.
observable: pKi

- CC1=C[C@H]2[C@@]3(O)[C@H](C)C[C@]4(OC(=O)C5CC6(C5)CN(C(=O)OC(C)(C)C)C6)[C@H]([C@@H]3C=C(CO)C[C@]2(O)C1=O)C4(C)C: 7.22 to 7.52
- CC1=C[C@H]2[C@@]3(O)[C@H](C)C[C@]4(OC(=O)[C@@H](N)CCCCCCc5ccc(C(F)F)cc5)[C@H]([C@@H]3C=C(CO)C[C@]2(O)C1=O)C4(C)C: 7.22 to 7.52
- CC1=C[C@H]2[C@@]3(O)[C@H](C)C[C@]4(OC(=O)[C@@H](N)CCCCCCCCc5ccccc5)[C@H]([C@@H]3C=C(CO)C[C@]2(O)C1=O)C4(C)C: 8.00 to 8.30
- CC1=C[C@H]2[C@@]3(O)[C@H](C)C[C@]4(OC(=O)[C@H](N)CCCCCCc5ccccc5)[C@H]([C@@H]3C=C(CO)C[C@]2(O)C1=O)C4(C)C: 7.52 to 9.00
- CC1=C[C@H]2[C@@]3(O)[C@H](C)C[C@]4(OC(=O)[C@@H](N)CCc5ccccc5)[C@H]([C@@H]3C=C(CO)C[C@]2(O)C1=O)C4(C)C: 7.22 to 7.52
- CC1=C[C@H]2[C@@]3(O)[C@H](C)C[C@]4(OC(=O)CC5CC6(CNC6)C5)[C@H]([C@@H]3C=C(CO)C[C@]2(O)C1=O)C4(C)C: 6.40 to 6.70
